Each recorded value in this set is attributed to patent US20230002359A1.

Quick reference for percent control (mortality, anti-feedant effect or growth inhibition) at 200 ppm among some compounds
- Tested on: Chilo suppressalis (Striped Rice Stemborer)
- PROCEDURE_SUMMARY: Example B3: Chilo suppressalis (striped rice stemborer), artificial diet, L2 larvae
- Type: in vivo
- MEASUREMENT_PARAMETERS: 144 h, application rate of 200 ppm, 6 days after infestation, L2 larvae, read-out: control in at least one of the three categories (mortality, anti-feedant effect, or growth inhibition)
REPORTED_PROPERTY: percent control (mortality, anti-feedant effect or growth inhibition) at 200 ppm

COMPOUND | READING
CC(c1nccnc1-c1ncccn1)N(C)c1ncnc2c(Br)cc(C(F)(F)F)cc12 (stereo not drawn) [P.97] | ≥ 80%
CC(c1nccnc1-n1nccn1)N(C)c1ncnc2c(C(F)(F)F)cc(Br)cc12 (stereo not drawn) [P.105] | ≥ 80%
CC(c1nccnc1-n1nccn1)N(CC1CC1)c1ncnc2c(Cl)cc(C(F)(F)F)cc12 (stereo not drawn) [P.76] | ≥ 80%
CC(=O)N(c1ncnc2c(C(F)(F)F)cc(C(F)(F)F)cc12)C(C)c1ncnn1-c1ccc(C#N)cn1 (stereo not drawn) [P.259] | ≥ 80%
CC(Nc1ncnc2c(Br)cc(Br)cc12)c1nccnc1-n1nccn1 (stereo not drawn) [P.37] | ≥ 80%
CC(Nc1ncnc2c(Cl)cc(Br)cc12)c1nccnc1-c1ncccn1 (stereo not drawn) [P.178] | ≥ 80%
CC(Nc1ncnc2c(Br)cc(C(F)(F)F)cc12)c1nccnc1-c1ccc(C#N)cn1 (stereo not drawn) [P.117] | ≥ 80%
CC(Nc1ncnc2c(Br)cc(Cl)cc12)c1ncnn1-c1ccc(C#N)cn1 (stereo not drawn) [P.158] | ≥ 80%
CC(Nc1ncnc2c(C(F)(F)F)cc(Cl)cc12)c1ncnn1-c1ccc(C#N)cn1 (stereo not drawn) [P.41] | ≥ 80%
C[C@H](Nc1ccnc2c(C(F)(F)F)cc(C(F)(F)F)cc12)c1ncnn1-c1ncccn1 [P.5] | ≥ 80%
C[C@@H](c1ncnn1-c1ccc(C#N)cn1)N(C)c1ccnc2c(C(F)(F)F)cc(C(F)(F)F)cc12 [P.214] | ≥ 80%
C[C@@H](c1ncnn1-c1ccc(C#N)cn1)N(C)c1ncnc2c(C(=O)C3CC3)cc(C(F)(F)F)cc12 [P.227] | ≥ 80%
CC(Nc1ncnc2c(Br)cc(C(F)(F)F)cc12)c1nccnc1-c1ncccn1 (stereo not drawn) [P.96] | ≥ 80%
CC(c1nccnc1-c1ncccn1)N(C)c1ncnc2c(C(F)(F)F)cc(Br)cc12 (stereo not drawn) [P.98] | ≥ 80%
CC(c1nc(Br)nn1-c1ncccn1)N(C)c1ncnc2c(C(F)(F)F)cc(Cl)cc12 (stereo not drawn) [P.205] | ≥ 80%
CC(c1ncnn1-c1ncccn1)N(C)c1ncnc2c(C(F)(F)F)cc(Br)cc12 (stereo not drawn) [P.127] | ≥ 80%
CC(Nc1ncnc2c(C(F)(F)F)cc(Br)cc12)c1nccnc1-c1ccc(Br)cn1 (stereo not drawn) [P.198] | ≥ 80%
CC(Nc1ncnc2c(C(F)(F)F)cc(Br)cc12)c1ncnn1-c1ccc(OC(F)F)cn1 (stereo not drawn) [P.195] | ≥ 80%

---

- System: Plutella xylostella (Diamondback Moth)
- PROCEDURE_SUMMARY: Example B9: Plutella xylostella (diamondback moth), artificial diet, eggs, 96-well
- Type: in vivo
- MEASUREMENT_PARAMETERS: 216 h, application rate of 500 ppm, 9 days after infestation, read-out: control in mortality

MOLECULE | mortality at 500 ppm
CC(Nc1ncnc2c(Cl)cc(Cl)cc12)c1ncnn1-c1ncccn1 (centres unmarked) [P.68] | ≥ 80%
CC(c1ncnn1-c1ncccn1)N(C)c1ncnc2c(C(F)(F)F)cc(C(F)(F)F)cc12 (centres unmarked) [P.58] | ≥ 80%
C[C@H](Nc1ncnc2c(I)cc(C(F)(F)F)cc12)c1ncnn1-c1ncccn1 [P.95] | ≥ 80%
CC(Nc1ncnc2c(C(F)(F)F)cc(C(F)(F)F)cc12)c1ncnn1-c1ccc(C#N)cn1 (centres unmarked) [P.61] | ≥ 80%
CC(Nc1ncnc2c(C(F)(F)F)cc(Br)cc12)c1ncnn1-c1ccc(C#N)cn1 (centres unmarked) [P.63] | ≥ 80%

---

COMPOUND | melting point
C[C@@H](c1ncnn1-c1ccc(C(N)=O)cn1)N(C)c1ncnc2c(C(F)(F)F)cc(C(F)(F)F)cc12 | 183 to 185 °C
CC(c1ncnn1-c1ncccn1)N(CC1CC1)c1nc(Cl)nc2c(Br)cc(C(F)(F)F)cc12 (centres unmarked) | 87 to 89 °C
CC(Nc1ncnc2c(C(F)(F)F)cc(Cl)cc12)c1ncnn1-c1ccc(Br)cn1 (centres unmarked) | 274 to 276 °C
CC(c1ncnn1-c1ccc(OC(F)F)cn1)N(C)c1ncnc2c(Br)cc(C(F)(F)F)cc12 (centres unmarked) | 75 to 77 °C
C[C@@H](c1ncnn1-c1ncccn1)N(C)c1ncnc2c(C(F)(F)F)cc(C3CC3)cc12 | 182 to 184 °C
CC(c1ncnn1-c1ncccn1)N(CC1CC1)c1nc(Cl)nc2c(Cl)cc(C(F)(F)F)cc12 (centres unmarked) | 81 to 83 °C
CC(Nc1ncnc2c(Cl)cc(C(F)(F)F)cc12)c1nccnc1-c1ccc(Br)cn1 (centres unmarked) | 230 to 232 °C
C[C@@H](c1ncnn1-c1ccc(-c2noc(C(F)(F)F)n2)cn1)N(C)c1ncnc2c(C(F)(F)F)cc(Cl)cc12 | 75 to 77 °C
C[C@@H](c1ncnn1-c1ccc(C(N)=NO)cn1)N(C)c1ncnc2c(C(F)(F)F)cc(Cl)cc12 | 223 to 225 °C
CC(c1nccnc1-c1ccc(C#N)cn1)N(CC1CC1)c1ncnc2c(C(F)(F)F)cc(Cl)cc12 (centres unmarked) | 254 to 256 °C
C[C@H](Nc1c(C#N)cnc2c(C(F)(F)F)cc(C(F)(F)F)cc12)c1ncnn1-c1ccc(C#N)cn1 | 204 to 206 °C
CC(Nc1ncnc2c(C(F)(F)F)cc(Br)cc12)c1ncnn1-c1ccc(F)cn1 (centres unmarked) | 282 to 284 °C
CC(c1ncnn1-c1ccc(C#N)cn1)N(C)c1ncnc2c(Cl)c(F)c(Cl)cc12 (centres unmarked) | 145 to 155 °C
CC(c1nccnc1-c1ccc(Br)cn1)N(C)c1ncnc2c(Cl)cc(C(F)(F)F)cc12 (centres unmarked) | 142 to 144 °C
C[C@H](Nc1c(C#N)cnc2c(C(F)(F)F)cc(C(F)(F)F)cc12)c1ncnn1-c1ncccn1 | 203 to 205 °C
CC(c1ncnn1-c1ccc(OC(F)F)cn1)N(C)c1ncnc2c(Cl)cc(C(F)(F)F)cc12 (centres unmarked) | 102 to 104 °C
C[C@@H](c1ncnn1-c1ccc(-c2nnn[nH]2)cn1)N(C)c1ncnc2c(C(F)(F)F)cc(Cl)cc12 | 77 to 79 °C

---

Quick reference for percent control (mortality, anti-feedant effect or growth inhibition) at 200 ppm among some molecules
- Test system: Chilo suppressalis (Striped Rice Stemborer)
- PROCEDURE_SUMMARY: Example B3: Chilo suppressalis (striped rice stemborer), artificial diet, L2 larvae
- Format: in vivo
- MEASUREMENT_PARAMETERS: 144 h, application rate of 200 ppm, 6 days after infestation, L2 larvae, read-out: control in at least one of the three categories (mortality, anti-feedant effect, or growth inhibition)
REPORTED_PROPERTY: percent control (mortality, anti-feedant effect or growth inhibition) at 200 ppm

MOLECULE | READING
CC(c1nccnc1-c1ncccn1)N(C)c1ncnc2c(C(F)(F)F)cc(C(F)(F)F)cc12 (centres unmarked) | ≥ 80%
CC(c1nccnc1-c1ncccn1)N(CC1CC1)c1ncnc2c(Br)cc(C(F)(F)F)cc12 (centres unmarked) | ≥ 80%
CC(Nc1ncnc2c(Cl)cc(Cl)cc12)c1ncnn1-c1ncccn1 (centres unmarked) | ≥ 80%
CC(c1nccnc1-n1nccn1)N(CC1CC1)c1ncnc2c(C(F)(F)F)cc(Br)cc12 (centres unmarked) | ≥ 80%
CC(c1nccnc1-n1nccn1)N(C)c1ncnc2c(C(F)(F)F)cc(C(F)(F)F)cc12 (centres unmarked) | ≥ 80%

---

Quick reference for percent control (mortality, anti-feedant effect or growth inhibition) at 200 ppm among some compounds
- Tested on: Chilo suppressalis (Striped Rice Stemborer)
- PROCEDURE_SUMMARY: Example B3: Chilo suppressalis (striped rice stemborer), artificial diet, L2 larvae
- Assay type: in vivo
- MEASUREMENT_PARAMETERS: 144 h, application rate of 200 ppm, 6 days after infestation, L2 larvae, read-out: control in at least one of the three categories (mortality, anti-feedant effect, or growth inhibition)
REPORTED_PROPERTY: percent control (mortality, anti-feedant effect or growth inhibition) at 200 ppm

COMPOUND | READING
CC(Nc1ncnc2c(OC(F)(F)F)cc(Br)cc12)c1nccnc1-c1ncccn1 (stereo not shown) [P.11] | ≥ 80%
CC(Nc1ncnc2c(C(F)(F)F)cc(Cl)cc12)c1nccnc1-c1ncccn1 (stereo not shown) [P.130] | ≥ 80%
CC(Nc1ncnc2c(Br)cc(OC(F)(F)F)cc12)c1ncnn1-c1ccc(C#N)cn1 (stereo not shown) [P.246] | ≥ 80%
CC(c1nccnc1-n1nccn1)N(CC1CC1)c1ncnc2c(C(F)(F)F)cc(Cl)cc12 (stereo not shown) [P.77] | ≥ 80%
CC(c1nccnc1-c1ccc(C#N)cn1)N(CC1CC1)c1ncnc2c(Br)cc(C(F)(F)F)cc12 (stereo not shown) [P.73] | ≥ 80%
C[C@H](c1ncnn1-c1ccc(C#N)cn1)N(C)c1ncnc2c(C(F)(F)F)cc(Br)cc12 [P.203] | ≥ 80%
CC(Nc1ncnc2c(C(F)(F)F)cc(C(F)(F)F)cc12)c1nccnc1-n1nccn1 (stereo not shown) [P.56] | ≥ 80%
CC(Nc1ncnc2c(Br)cc(C(F)(F)F)cc12)c1nccnc1-c1ccc(OC(F)F)cn1 (stereo not shown) [P.111] | ≥ 80%
CC(Nc1ncnc2c(Cl)cc(C(F)(F)F)cc12)c1nccnc1-c1ccc(OC(F)F)cn1 (stereo not shown) [P.113] | ≥ 80%
C[C@@H](c1ncnn1-c1ccc(C#N)cn1)N(CC1CC1)c1ncnc2c(Cl)cc(C(F)(F)F)cc12 [P.271] | ≥ 80%
CC(Nc1ncnc2c(OC(F)(F)F)cc(Br)cc12)c1nccnc1-n1nccn1 (stereo not shown) [P.14] | ≥ 80%
C[C@@H](c1ncnn1-c1ncccn1)N(CC1CC1)c1ncnc2c(Cl)cc(C(F)(F)F)cc12 [P.272] | ≥ 80%
CC(Nc1ncnc2c(C(F)(F)F)cc(C(F)(F)F)cc12)c1nccnc1-c1ccc(OC(F)F)cn1 (stereo not shown) [P.109] | ≥ 80%
CC(c1nccnc1-c1ccc(C#N)cn1)N(CC1CC1)c1ncnc2c(C(F)(F)F)cc(C(F)(F)F)cc12 (stereo not shown) [P.126] | ≥ 80%
CC(c1ncnn1-c1ccc(C#N)cn1)N(C)c1c(C#N)cnc2c(C(F)(F)F)cc(C(F)(F)F)cc12 (stereo not shown) [P.224] | ≥ 80%
C[C@@H](c1ncnn1-c1ccc(C#N)cn1)N(C)c1ncnc2c(I)cc(C(F)(F)F)cc12 [P.228] | ≥ 80%
CC(c1ncnn1-c1ncccn1)N(C)c1ncnc2c(Br)cc(Br)cc12 (stereo not shown) [P.258] | ≥ 80%
C[C@@H](c1ncnn1-c1ccc(C#N)cn1)N(CC1CC1)c1ncnc2c(C(F)(F)F)cc(Cl)cc12 [P.264] | ≥ 80%
C[C@@H](c1ncnn1-c1ncccn1)N(C)c1ncnc2c(C(F)(F)F)cc(C(=O)C3CC3)cc12 [P.82] | ≥ 80%
CC(c1ncnn1-c1ccc(F)cn1)N(C)c1ncnc2c(Br)cc(C(F)(F)F)cc12 (stereo not shown) [P.185] | ≥ 80%
CC(Nc1ncnc2c(Br)cc(Cl)cc12)c1ncnn1-c1ncccn1 (stereo not shown) [P.171] | ≥ 80%
CC(Nc1ncnc2c(Br)cc(OC(F)(F)F)cc12)c1ncnn1-c1ncccn1 (stereo not shown) [P.229] | ≥ 80%
CC(Nc1ncnc2c(Cl)cc(Cl)cc12)c1ncnn1-c1ccc(C#N)cn1 (stereo not shown) [P.65] | ≥ 80%
C[C@@H](c1ncnn1-c1ccc(C#N)cn1)N(C)c1ncnc2c(C(F)(F)F)cc(C(F)(F)C3CC3)cc12 [P.163] | ≥ 80%
CC(c1nccnc1-n1nccn1)N(C)c1ncnc2c(C(F)(F)F)cc(Cl)cc12 (stereo not shown) [P.129] | ≥ 80%
CC(c1ncnn1-c1ccc(OC(F)F)cn1)N(C)c1ncnc2c(C(F)(F)F)cc(Cl)cc12 (stereo not shown) [P.236] | ≥ 80%
CC(c1ncnn1-c1ccc(C#N)cn1)N(C)c1ncnc2c(C(F)(F)F)cc(Br)cc12 (stereo not shown) [P.52] | ≥ 80%
CC(Nc1nc(Cl)nc2c(C(F)(F)F)cc(C(F)(F)F)cc12)c1ncnn1-c1ncccn1 (stereo not shown) [P.25] | ≥ 80%
C[C@@H](c1ncnn1-c1ncccn1)N(C)c1ncnc2c(C(F)(F)F)cc(C(F)(F)F)cc12 [P.26] | ≥ 80%
CC(c1ncnn1-c1ccc(C#N)cn1)N(C)c1ncnc2c(Br)cc(OC(F)(F)F)cc12 (stereo not shown) [P.217] | ≥ 80%
C[C@H](Nc1ncnc2c(Cl)cc(OC(F)F)cc12)c1ncnn1-c1ncccn1 [P.94] | ≥ 80%
C[C@H](Nc1ncnc2c(Cl)cc(C(F)(F)F)cc12)c1ncnn1-c1ncccn1 [P.18] | ≥ 80%
CC(c1ncnn1-c1ncccn1)N(C)c1ncnc2c(Br)cc(C(F)(F)F)cc12 (stereo not shown) [P.71] | ≥ 80%
COCN(c1ncnc2c(C(F)(F)F)cc(C(F)(F)F)cc12)C(C)c1ncnn1-c1ccc(C#N)cn1 (stereo not shown) [P.7] | ≥ 80%
